# Experiment Summary: in vitro
# Test Parameters: human
Readout Kind: viability at 0.1 µM (%)

{"Compound": "CC(=O)O[C@H]1C(=O)[C@@]2(C)[C@H]([C@H](OC(=O)c3ccccc3)[C@]3(O)C[C@H](OC(=O)[C@H](O)[C@@H](NC(=O)c4ccccc4)c4ccccc4)C(C)=C1C3(C)C)[C@]1(OC(C)=O)CO[C@@H]1C[C@@H]2O [Paclitaxel, reference compound]", "Result Units": "%", "Assay Result": 16.9}

###

# Experiment Summary: in vitro
# Test Parameters: human
Readout Kind: viability at 0.001562 µM (%)

{"Molecule": "CC(=O)O[C@H]1C(=O)[C@@]2(C)[C@H]([C@H](OC(=O)c3ccccc3)[C@]3(O)C[C@H](OC(=O)[C@H](O)[C@@H](NC(=O)c4ccccc4)c4ccccc4)C(C)=C1C3(C)C)[C@]1(OC(C)=O)CO[C@@H]1C[C@@H]2O [Paclitaxel, reference compound]", "Readout Kind": "viability at 0.001562 µM", "Assay Result": 79.7}
